Cited source for all entries: the supplement of paper PMC10567573

B1: CLCN6 (parent)
chain: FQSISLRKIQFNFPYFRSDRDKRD

# Variants of: B1
# Experimental details: protein stability index of a GFP-peptide fusion (GPS, HEK-293T) (PSI 1-6); higher = more stable;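 also: lentivirally expressed fusions sorted by FACS into six bins by GFP to DsRed ratio, PSI derived from sequencing read proportions per bin multiplied by bin number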
# Condition set: c terminus: a fixed tail appended
Experimental endpoint: protein stability index
The answer should be a number; do not append a unit.

Previously resolved entries follow.
1) K8S :: 1.31
2) K8Q :: 2.12
3) N12T :: 2.37

Input Y15T . Output protein stability index: 2.75

Input D21R . Output protein stability index: 1.19

Input R17Q . Output protein stability index: 2.02

Input F16D . Output protein stability index: 2.74

Input D19T . Output protein stability index: 2.21

Input Q10I . Output protein stability index: 2.33

Input D24S . Output protein stability index: 2.23

Input Q10H . Output protein stability index: 1.51

Input K22P . Output protein stability index: 1.66

Input F11K . Output protein stability index: 2.79
